Reference source: ChEMBL document CHEMBL5550200

Target: UniProt:P54753
Sequence (P54753 whole entry): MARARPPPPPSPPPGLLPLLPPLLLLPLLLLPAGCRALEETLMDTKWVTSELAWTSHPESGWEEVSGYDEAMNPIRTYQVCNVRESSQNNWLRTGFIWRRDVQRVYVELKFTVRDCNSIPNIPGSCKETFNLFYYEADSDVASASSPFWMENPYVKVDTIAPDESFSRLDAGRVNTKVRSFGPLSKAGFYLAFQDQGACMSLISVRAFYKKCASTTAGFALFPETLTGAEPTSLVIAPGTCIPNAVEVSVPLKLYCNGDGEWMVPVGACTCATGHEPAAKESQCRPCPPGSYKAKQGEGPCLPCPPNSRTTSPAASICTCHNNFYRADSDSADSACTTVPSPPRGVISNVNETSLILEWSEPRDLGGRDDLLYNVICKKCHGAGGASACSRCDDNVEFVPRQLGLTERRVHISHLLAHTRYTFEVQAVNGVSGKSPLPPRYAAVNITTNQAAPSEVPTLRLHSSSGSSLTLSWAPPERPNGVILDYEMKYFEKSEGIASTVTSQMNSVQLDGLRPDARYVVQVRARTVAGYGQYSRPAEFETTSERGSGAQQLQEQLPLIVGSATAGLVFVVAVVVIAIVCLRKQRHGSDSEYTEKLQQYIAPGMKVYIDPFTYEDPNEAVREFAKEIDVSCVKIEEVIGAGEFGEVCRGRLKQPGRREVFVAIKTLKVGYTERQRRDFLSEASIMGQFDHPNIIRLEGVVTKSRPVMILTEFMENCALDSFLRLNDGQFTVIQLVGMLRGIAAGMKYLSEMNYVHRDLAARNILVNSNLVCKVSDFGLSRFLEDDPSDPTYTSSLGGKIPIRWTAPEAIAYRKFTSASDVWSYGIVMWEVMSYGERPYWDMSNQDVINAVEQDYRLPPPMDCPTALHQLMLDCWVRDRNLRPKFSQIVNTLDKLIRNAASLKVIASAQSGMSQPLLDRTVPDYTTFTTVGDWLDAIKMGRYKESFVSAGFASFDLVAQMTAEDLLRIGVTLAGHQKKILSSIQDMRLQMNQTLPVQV
Experiment: Induction of stabilization of recombinant EPHB3 (unknown origin) assessed as change in melting temperature by differential scanning fluorimetry assay
valueKind: deltaTm (K)
State just the number; it will be interpreted in K.

Q. Which value of deltaTm has been reported for COc1cc(-c2cnc3nc2NCCCNS(=O)(=O)c2cccc(c2)N3)ccc1Br in the records?
A. 4

Q. Data request, read-out deltaTm, for O=S1(=O)NCCCNc2nc(ncc2-c2cccc(Cl)c2F)Nc2cccc1c2
A. 3.7

Q. I am curious: what deltaTm value has been reported for COc1ccc(-c2cnc3nc2NCCCNS(=O)(=O)c2cccc(c2)N3)cc1OC ?
A. 1.4

Q. Report deltaTm for O=S1(=O)NCCCNc2nc(ncc2-c2cc(Cl)c(F)cc2F)Nc2cccc1c2 please.
A. 4.3

Q. Fill blank: measured deltaTm of the compound COCCOc1ccc2cc1S(=O)(=O)NCCCNc1nc(ncc1-c1ccc(F)c(OC)c1)N2 is ____.
A. 3.1

Q. # get_value(readout='deltaTm', item= COc1cc(-c2cnc3nc2NCCCNS(=O)(=O)c2cc(ccc2OC)N3)ccc1F )
A. 1.6

Q. I'd like to know its deltaTm. The compound in question is COC(=O)c1ccc(-c2cnc3nc2NCCCNS(=O)(=O)c2cccc(c2)N3)cc1OC
A. 1.3

Q. Which value of deltaTm has been reported for COc1cc(-c2cnc3nc2NCCCNS(=O)(=O)c2cccc(c2)N3)ccc1F in the records?
A. 5.6

Q. Need deltaTm of COc1cc(-c2cnc3nc2NCCCNS(=O)(=O)c2cc(ccc2O)N3)ccc1F , thanks.
A. 4.2

Q. Need deltaTm, item COc1cc(-c2cnc3nc2NCCCNS(=O)(=O)c2cccc(c2)N3)cc(C(F)(F)F)c1
A. 1.1

Q. What value of measured deltaTm is listed for Nc1cc(-c2cnc3nc2NCCCNS(=O)(=O)c2cccc(c2)N3)ccc1F ?
A. 1.7

Q. Quick one: deltaTm of COC(=O)c1cc(-c2cnc3nc2NCCCNS(=O)(=O)c2cccc(c2)N3)ccc1F ?
A. 1.5

Q. Which measured deltaTm value corresponds to COc1cc(-c2cnc3nc2NCCCNS(=O)(=O)c2cccc(c2)N3)ccc1Cl ?
A. 4.7

Q. Requested read-out: deltaTm. Entry: COc1cc(-c2cnc3nc2NCCCNS(=O)(=O)c2cccc(c2)N3)cc(OC)c1OC
A. 2.4

Q. Fill in the blank: the reported deltaTm of COc1c(F)ccc(-c2cnc3nc2NCCCNS(=O)(=O)c2cccc(c2)N3)c1F is ____.
A. 4.8

Q. Recorded deltaTm for COc1cc(-c2cnc3nc2NCCCNS(=O)(=O)c2cccc(c2)N3)cc(F)c1F , please?
A. 2.3

Q. Entry O=S1(=O)NCCCNc2nc(ncc2-c2ccc(F)c(C(F)(F)F)c2)Nc2cccc1c2 : reported deltaTm = ?
A. 0.6

Q. What value of deltaTm has been recorded for this entry: COC(=O)COc1ccc2cc1S(=O)(=O)NCCCNc1nc(ncc1-c1ccc(F)c(OC)c1)N2
A. 1.4

Q. Field request: deltaTm | item: COc1cc(-c2cnc3nc2NCCCNS(=O)(=O)c2cccc(c2)N3)c(F)cc1F
A. 3.9

Q. Could you tell me which deltaTm is on file for COc1cc(-c2cnc3nc2NCCCNS(=O)(=O)c2cc(ccc2Cl)N3)ccc1F ?
A. 1.6

Q. Suppose we examine the compound CN[C@@H]1C[C@H]2O[C@@](C)([C@@H]1OC)n1c3ccccc3c3c4c(c5c6ccccc6n2c5c31)C(=O)NC4 ; what deltaTm value has been reported?
A. 6.1

Q. Form field: reported deltaTm of O=S1(=O)NCCCNc2nc(ncc2-c2ccc(Cl)c(Cl)c2)Nc2cccc1c2
A. 3.2

Q. Can you share its deltaTm? I mean this compound: O=S1(=O)NCCCNc2nc(ncc2-c2ccc(F)c(O)c2)Nc2cccc1c2
A. 3

Q. Recorded deltaTm of COc1cc(-c2cnc3nc2NCCCNS(=O)(=O)c2cccc(c2)N3)c(F)cc1Cl , please.
A. 5.8

Q. Given COc1cc(-c2cnc3nc2NCCCNS(=O)(=O)c2cccc(c2)N3)ccc1C#N , state its recorded deltaTm.
A. 3.1

----------
valueKind: deltaTm (K)
Give a bare numeral; the unit K is implied.

Q. # returns recorded deltaTm (system: Ephrin type-A receptor 5 (Homo sapiens)) for COc1cc(-c2cnc3nc2NCCCNS(=O)(=O)c2cccc(c2)N3)ccc1F
A. 5.4

Q. Query the reported deltaTm for Ephrin type-A receptor 5 (Homo sapiens); item: COc1cc(-c2cnc3nc2NCCCNS(=O)(=O)c2cccc(c2)N3)ccc1Cl
A. 4.9

Q. Notebook entry, Ephrin type-A receptor 5 (Homo sapiens) assay: deltaTm of COC(=O)c1cc(-c2cnc3nc2NCCCNS(=O)(=O)c2cccc(c2)N3)ccc1F = ?
A. -0.7

Q. Form field: deltaTm recorded for COc1cc(-c2cnc3nc2NCCCNS(=O)(=O)c2cccc(c2)N3)ccc1Br with Ephrin type-A receptor 5 (Homo sapiens) (enter value)
A. 5

Q. Return deltaTm measured with Ephrin type-A receptor 5 (Homo sapiens) given this molecule: COC(=O)COc1ccc2cc1S(=O)(=O)NCCCNc1nc(ncc1-c1ccc(F)c(OC)c1)N2
A. 2.3

----------
Target: Ephrin type-A receptor 7 (Homo sapiens) (UniProt Q15375)
Sequence (Q15375 28-998 limits assumed): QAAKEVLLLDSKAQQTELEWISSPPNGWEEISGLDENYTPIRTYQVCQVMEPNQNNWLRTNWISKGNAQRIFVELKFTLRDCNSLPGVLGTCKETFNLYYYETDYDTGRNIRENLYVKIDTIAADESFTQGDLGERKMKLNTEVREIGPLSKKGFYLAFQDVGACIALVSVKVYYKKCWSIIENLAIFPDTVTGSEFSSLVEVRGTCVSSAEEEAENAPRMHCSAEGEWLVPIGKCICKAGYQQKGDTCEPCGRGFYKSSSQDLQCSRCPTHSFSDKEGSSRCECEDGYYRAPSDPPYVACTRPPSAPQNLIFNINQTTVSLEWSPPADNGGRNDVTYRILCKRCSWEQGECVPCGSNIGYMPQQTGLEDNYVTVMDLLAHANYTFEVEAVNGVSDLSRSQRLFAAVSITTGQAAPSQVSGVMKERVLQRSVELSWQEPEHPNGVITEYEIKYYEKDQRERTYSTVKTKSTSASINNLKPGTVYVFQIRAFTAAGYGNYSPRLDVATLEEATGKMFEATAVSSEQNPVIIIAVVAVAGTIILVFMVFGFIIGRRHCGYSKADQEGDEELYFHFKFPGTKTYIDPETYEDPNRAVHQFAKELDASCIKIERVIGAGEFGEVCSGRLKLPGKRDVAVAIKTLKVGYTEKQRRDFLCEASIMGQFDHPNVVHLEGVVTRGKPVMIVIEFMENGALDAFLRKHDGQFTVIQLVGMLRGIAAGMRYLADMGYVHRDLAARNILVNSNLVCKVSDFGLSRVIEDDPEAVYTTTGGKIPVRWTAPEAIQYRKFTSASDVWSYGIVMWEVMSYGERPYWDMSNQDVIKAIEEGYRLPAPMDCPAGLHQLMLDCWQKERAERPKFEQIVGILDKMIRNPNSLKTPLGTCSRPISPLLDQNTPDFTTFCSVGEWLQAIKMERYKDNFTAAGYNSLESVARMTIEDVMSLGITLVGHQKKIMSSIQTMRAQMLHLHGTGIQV
Test: Induction of stabilization of recombinant EPHA7 (unknown origin) assessed as change in melting temperature by differential scanning fluorimetry assay
valueKind: deltaTm (K)
Quick reminder: number only, in K, skip the unit.

Q. Find the recorded deltaTm belonging to Cc1cc(Cl)c(Cl)cc1-c1cnc2nc1NCCCNS(=O)(=O)c1cccc(c1)N2 and report it.
A. 0.5

Q. Bench note: what deltaTm did O=S1(=O)NCCCNc2nc(ncc2-c2cc(Cl)c(F)cc2F)Nc2cccc1c2 show?
A. 0.1

Q. Any idea what deltaTm was measured for COc1cc(-c2cnc3nc2NCCCNS(=O)(=O)c2cccc(c2)N3)cc(C(F)(F)F)c1 ?
A. 1.4

Q. Fill in the blank: the reported deltaTm of CSc1cc(-c2cnc3nc2NCCCNS(=O)(=O)c2cccc(c2)N3)ccc1F is ____.
A. 2

Q. Name the reported deltaTm value associated with the compound COc1cc(-c2cnc3nc2NCCCNS(=O)(=O)c2cc(ccc2O)N3)ccc1F
A. 0.3

Q. // deltaTm lookup, key: COc1cc(-c2cnc3nc2NCCCNS(=O)(=O)c2cc(ccc2OC)N3)ccc1F
A. 1

Q. For the compound Nc1cc(-c2cnc3nc2NCCCNS(=O)(=O)c2cccc(c2)N3)ccc1F , what deltaTm is on record?
A. 0.2

Q. Item COc1cc(-c2cnc3nc2NCCCNS(=O)(=O)c2cc(ccc2-c2ccc(O)cc2)N3)ccc1F has what recorded deltaTm?
A. 2.9

Q. Bench note: what deltaTm did COc1cc(-c2cnc3nc2NCCCNS(=O)(=O)c2cccc(c2)N3)ccc1C#N show?
A. 0

Q. Can you share its deltaTm? I mean this compound: O=S1(=O)NCCCNc2nc(ncc2-c2ccc(F)c(Cl)c2)Nc2cccc1c2
A. -1.5

Q. Suppose we examine the compound COc1cc(-c2cnc3nc2NCCCNS(=O)(=O)c2cccc(c2)N3)ccc1F ; what deltaTm value has been reported?
A. 0.3

Q. Name the reported deltaTm value associated with the compound O=S1(=O)NCCCNc2nc(ncc2-c2cc(Cl)c(Cl)cc2F)Nc2cccc1c2
A. 0.4

Q. Please look up its deltaTm: COCCOc1ccc2cc1S(=O)(=O)NCCCNc1nc(ncc1-c1ccc(F)c(OC)c1)N2
A. 1

Q. Field request: deltaTm | item: COc1c(F)ccc(-c2cnc3nc2NCCCNS(=O)(=O)c2cccc(c2)N3)c1F
A. -2.5

Q. Suppose we examine the compound COc1cc(-c2cnc3nc2NCCCNS(=O)(=O)c2cccc(c2)N3)ccc1Cl ; what deltaTm value has been reported?
A. 2.1

Q. Quick one: deltaTm for COc1cc(-c2cnc3nc2NCCCNS(=O)(=O)c2cccc(c2)N3)cc(OC)c1OC ?
A. -0.3

Q. // deltaTm lookup, key: COC(=O)COc1ccc2cc1S(=O)(=O)NCCCNc1nc(ncc1-c1ccc(F)c(OC)c1)N2
A. 0.4

Q. Entry COc1cc(-c2cnc3nc2NCCCNS(=O)(=O)c2cccc(c2)N3)c(F)cc1F : reported deltaTm = ?
A. 0.4

Q. So what's the measured deltaTm for this one? O=S1(=O)NCCCNc2nc(ncc2-c2cccc(Cl)c2F)Nc2cccc1c2
A. 1.8

Q. Could you tell me which deltaTm is on file for O=S1(=O)NCCCNc2nc(ncc2-c2ccc(Cl)c(Cl)c2)Nc2cccc1c2 ?
A. 2.4

----------
Biological target: Ephrin type-A receptor 4 (Homo sapiens, UniProt P54764)
Sequence (P54764 whole entry): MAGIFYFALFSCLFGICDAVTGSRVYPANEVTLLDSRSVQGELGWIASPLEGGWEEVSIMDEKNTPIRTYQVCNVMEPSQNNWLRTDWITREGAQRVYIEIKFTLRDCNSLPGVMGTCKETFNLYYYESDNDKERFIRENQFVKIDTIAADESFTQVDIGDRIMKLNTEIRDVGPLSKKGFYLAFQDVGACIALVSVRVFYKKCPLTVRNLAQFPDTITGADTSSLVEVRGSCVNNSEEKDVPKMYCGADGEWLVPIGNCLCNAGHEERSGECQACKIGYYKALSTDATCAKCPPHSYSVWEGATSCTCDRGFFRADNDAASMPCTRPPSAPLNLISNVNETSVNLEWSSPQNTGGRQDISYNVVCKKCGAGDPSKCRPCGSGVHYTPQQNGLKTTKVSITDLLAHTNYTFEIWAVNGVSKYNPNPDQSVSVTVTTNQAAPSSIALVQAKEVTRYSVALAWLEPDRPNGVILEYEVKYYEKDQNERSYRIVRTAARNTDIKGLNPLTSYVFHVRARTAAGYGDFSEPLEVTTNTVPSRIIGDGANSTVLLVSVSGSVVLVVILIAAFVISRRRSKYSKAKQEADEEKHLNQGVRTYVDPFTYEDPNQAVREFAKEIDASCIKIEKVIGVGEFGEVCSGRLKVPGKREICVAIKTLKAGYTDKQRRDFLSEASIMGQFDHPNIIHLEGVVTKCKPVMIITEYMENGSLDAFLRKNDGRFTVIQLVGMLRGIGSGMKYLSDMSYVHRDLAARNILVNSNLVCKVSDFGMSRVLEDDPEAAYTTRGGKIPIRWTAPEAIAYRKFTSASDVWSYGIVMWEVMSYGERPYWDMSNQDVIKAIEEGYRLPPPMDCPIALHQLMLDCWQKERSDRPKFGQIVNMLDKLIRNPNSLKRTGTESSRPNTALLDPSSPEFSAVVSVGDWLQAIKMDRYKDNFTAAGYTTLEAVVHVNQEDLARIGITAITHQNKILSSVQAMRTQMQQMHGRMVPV
Test: Inhibition of full length EPHA4 (unknown origin) expressed in HEK293T cells using NanoBRET NanoGlo substrate incubated for 2 hrs in presence of K4 tracer by NanoBRET assay
valueKind: EC50 (nM)
Give a bare numeral; the unit nM is implied.

Q. Identify the measured EC50 of O=C(Nc1ccccc1Cl)c1cnc2ccc(C3CCNCC3)cn12 for Ephrin type-A receptor 4 (Homo sapiens, UniProt P54764).
A. 48
